- SYSTEM UNDER TEST: Prostaglandin E2 receptor EP3 subtype (Homo sapiens, UniProt P43115)
- Sequence (P43115 whole entry): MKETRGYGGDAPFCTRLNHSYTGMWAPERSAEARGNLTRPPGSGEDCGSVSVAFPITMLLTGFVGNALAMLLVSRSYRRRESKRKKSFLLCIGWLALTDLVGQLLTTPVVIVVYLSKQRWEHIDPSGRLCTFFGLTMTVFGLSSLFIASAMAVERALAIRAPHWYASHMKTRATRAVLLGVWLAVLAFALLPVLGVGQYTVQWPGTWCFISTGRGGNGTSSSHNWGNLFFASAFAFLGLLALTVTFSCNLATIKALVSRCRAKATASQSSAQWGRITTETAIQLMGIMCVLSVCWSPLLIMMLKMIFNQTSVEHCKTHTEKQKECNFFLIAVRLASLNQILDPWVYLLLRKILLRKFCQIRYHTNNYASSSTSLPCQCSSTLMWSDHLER
- PROTOCOL: Displacement of [3H]PGE2 from human recombinant EP3 receptor expressed in HEK293 cell membranes after 120 mins by liquid scintillation counting method
pKi: −log10 of the molar value.
RECORDED METRIC: pKi

Recorded pKi, per entry:
molecular_string=CCC#CC[C@H](C)[C@H](O)/C=C/[C@H]1CC(F)(F)C(=O)N1CCCCCCC(=O)O quantitative_readout=6.59
molecular_string=CCCCC[C@H](O)/C=C/[C@H]1CCC(=O)N1CCCCCCC(=O)O quantitative_readout=5.93

1 = CCC#CC[C@H](C)[C@H](O)/C=C/[C@H]1CCC(=O)N1CCCCCCC(=O)O
2 = CCCCC[C@H](O)/C=C/[C@H]1CC(F)(F)C(=O)N1CCCCCCC(=O)O
Among 1 and 2 , which shows a numerically higher pKi result? Answer = label.
2
(2: 6.46, 1: 6.06)
